// data source = ChEMBL document CHEMBL4321812

Molecular target: Ephrin type-B receptor 4 (Homo sapiens)
Sequence (P54760 whole entry, the tested form may be a part): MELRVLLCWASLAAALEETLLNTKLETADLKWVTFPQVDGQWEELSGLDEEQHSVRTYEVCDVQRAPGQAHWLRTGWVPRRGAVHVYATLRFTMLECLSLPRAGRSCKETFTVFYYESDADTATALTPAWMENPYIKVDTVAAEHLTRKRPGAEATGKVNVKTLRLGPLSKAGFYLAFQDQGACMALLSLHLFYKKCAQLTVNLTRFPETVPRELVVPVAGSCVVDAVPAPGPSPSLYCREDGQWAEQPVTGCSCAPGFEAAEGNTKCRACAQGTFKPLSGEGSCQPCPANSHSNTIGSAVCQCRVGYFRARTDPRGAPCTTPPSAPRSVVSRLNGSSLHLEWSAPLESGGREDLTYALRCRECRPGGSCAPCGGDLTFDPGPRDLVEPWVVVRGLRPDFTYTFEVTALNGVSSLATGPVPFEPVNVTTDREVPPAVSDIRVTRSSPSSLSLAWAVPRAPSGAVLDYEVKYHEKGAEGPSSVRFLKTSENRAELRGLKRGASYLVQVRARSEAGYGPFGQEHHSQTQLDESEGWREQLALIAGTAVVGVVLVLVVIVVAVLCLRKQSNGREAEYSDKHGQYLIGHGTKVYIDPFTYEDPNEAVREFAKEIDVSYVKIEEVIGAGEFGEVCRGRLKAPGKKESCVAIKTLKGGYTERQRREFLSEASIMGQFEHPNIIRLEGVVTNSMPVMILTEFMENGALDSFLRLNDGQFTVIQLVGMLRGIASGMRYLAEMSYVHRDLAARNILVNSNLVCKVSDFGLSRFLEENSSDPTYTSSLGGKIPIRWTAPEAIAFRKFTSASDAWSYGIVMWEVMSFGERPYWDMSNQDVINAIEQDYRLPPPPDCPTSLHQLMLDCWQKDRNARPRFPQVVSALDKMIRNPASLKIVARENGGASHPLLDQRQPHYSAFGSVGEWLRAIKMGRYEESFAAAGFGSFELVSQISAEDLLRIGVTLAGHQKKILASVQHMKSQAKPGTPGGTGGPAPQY
Assay: Binding affinity to recombinant N-terminal His-FLAG-GST-tagged EPHB4 (unknown origin) (577 to 987 residues) expressed in baculovirus infected Sf9 insect cells incubated for 1 hr by TR-FRET assay
property-label: Kd
Could you give the number and then its unit, please?

Ask: Quick check: Kd of `CO[C@@H]1[C@H](NCCOCCOCCOCCNC(=O)CCC2=[N+]3C(=Cc4c(C)cc(C)n4[B-]3(F)F)C=C2)C[C@H]2O[C@]1(C)n1c3ccccc3c3c4c(c5c6ccccc6n2c5c31)C(=O)NC4` ?
Reply: 1800 nM

----------
Biological target: Inhibitor of nuclear factor kappa-B kinase subunit epsilon (Homo sapiens)
Sequence (Q14164 whole entry): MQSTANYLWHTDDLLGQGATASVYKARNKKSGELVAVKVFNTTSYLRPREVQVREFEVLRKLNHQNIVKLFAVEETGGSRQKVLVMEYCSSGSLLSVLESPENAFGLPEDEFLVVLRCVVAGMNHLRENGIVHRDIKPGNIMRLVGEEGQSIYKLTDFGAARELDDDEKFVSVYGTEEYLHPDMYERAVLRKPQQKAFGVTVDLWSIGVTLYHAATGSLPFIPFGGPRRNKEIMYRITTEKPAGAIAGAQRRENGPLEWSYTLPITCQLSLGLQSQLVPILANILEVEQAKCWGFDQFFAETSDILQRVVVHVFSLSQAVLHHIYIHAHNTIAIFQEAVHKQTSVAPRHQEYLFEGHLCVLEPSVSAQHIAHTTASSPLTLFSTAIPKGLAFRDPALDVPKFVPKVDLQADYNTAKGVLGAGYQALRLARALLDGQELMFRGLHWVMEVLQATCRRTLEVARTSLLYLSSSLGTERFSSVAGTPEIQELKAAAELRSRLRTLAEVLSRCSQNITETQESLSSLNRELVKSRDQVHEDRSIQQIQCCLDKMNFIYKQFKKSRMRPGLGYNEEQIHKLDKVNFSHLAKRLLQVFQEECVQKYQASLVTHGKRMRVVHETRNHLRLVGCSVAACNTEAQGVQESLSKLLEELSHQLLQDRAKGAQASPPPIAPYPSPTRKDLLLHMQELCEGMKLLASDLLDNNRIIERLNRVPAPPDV
Test: Binding affinity to recombinant full-length N-terminal His-FLAG-GST-tagged IKBKE (unknown origin) expressed in baculovirus infected Sf9 insect cells incubated for 1 hr by TR-FRET assay
property-label: Kd (nM)
Supply the numeric figure in nM, leaving out any unit text.

structure-string	scale-unit	Kd
CO[C@@H]1[C@H](N(C)CCOCCOCCOCCNC(=O)CCC2=[N+]3C(=Cc4c(C)cc(C)n4[B-]3(F)F)C=C2)C[C@H]2O[C@]1(C)n1c3ccccc3c3c4c(c5c6ccccc6n2c5c31)C(=O)NC4	nM	44

Now look at this one.
Ask: Quick check: Kd of `CO[C@@H]1[C@H](NCCOCCOCCOCCNC(=O)CCC2=[N+]3C(=Cc4c(C)cc(C)n4[B-]3(F)F)C=C2)C[C@H]2O[C@]1(C)n1c3ccccc3c3c4c(c5c6ccccc6n2c5c31)C(=O)NC4` ?
Reply: 58
